# study-system: MMP-13 (Homo sapiens, UniProt P45452)
# procedure-summary: MMP-13 inhibition (Table 1, no method described)
# Type: biochemical
readout: IC50 (nM)
Numbers only here, please. The scale is nM.

# input Param item = CC#CCOc1ccc(S(=O)(=O)N2Cc3ccccc3N(C(C)=O)CC2C(=O)NO)cc1 (stereo not shown) ; retrieve measured IC50.
# output 77

* * *

# study-system: MMP-9 (Homo sapiens, UniProt P14780)
# Construct: from tissue; host or cells: human neutrophils
# Sequence (P14780 94-707): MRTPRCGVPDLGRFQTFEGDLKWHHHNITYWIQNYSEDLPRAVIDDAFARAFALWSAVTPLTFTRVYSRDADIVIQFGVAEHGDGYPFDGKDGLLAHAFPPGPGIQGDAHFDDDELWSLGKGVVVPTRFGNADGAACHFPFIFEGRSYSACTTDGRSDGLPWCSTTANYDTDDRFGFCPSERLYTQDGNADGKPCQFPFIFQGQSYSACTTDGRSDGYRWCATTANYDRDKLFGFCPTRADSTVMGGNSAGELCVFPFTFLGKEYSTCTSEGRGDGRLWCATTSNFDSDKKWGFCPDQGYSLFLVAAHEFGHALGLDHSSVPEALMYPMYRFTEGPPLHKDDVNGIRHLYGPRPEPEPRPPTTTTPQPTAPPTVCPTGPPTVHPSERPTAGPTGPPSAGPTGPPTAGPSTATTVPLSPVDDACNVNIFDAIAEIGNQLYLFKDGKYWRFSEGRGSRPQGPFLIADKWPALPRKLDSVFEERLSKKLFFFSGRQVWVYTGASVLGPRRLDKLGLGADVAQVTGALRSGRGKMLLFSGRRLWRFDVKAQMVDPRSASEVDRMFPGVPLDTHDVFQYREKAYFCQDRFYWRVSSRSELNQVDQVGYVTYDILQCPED
# procedure-summary: In Vitro Gelatinase Assay
# Type: biochemical
# condition-info: human neutrophil gelatinase B, thiopeptide substrate
readout: IC50 (nM)
Report only the number, with the unit nM understood.

# input Would you mind telling me what IC50 value was observed for CC#CCOc1ccc(S(=O)(=O)N2Cc3ccccc3N(C(C)=O)CC2C(=O)NO)cc1 (centres unmarked) [Example 1] ?
# output 228

# input Record request: IC50 value, item CC#CCOc1ccc(S(=O)(=O)N2Cc3ccccc3N(C(=O)c3ccccc3)CC2C(=O)NO)cc1 (centres unmarked) [Example 3]
# output 36
